The measurements presented in this section are drawn from patent EP4768499A1.

assay: Membrane permeability test using Caco-2 cells with preincubation; assay type: in vitro ADME; settings: Caco-2; preincubation 20 to 24 hours; Apical FaSSIF/HBSS pH 6.0, Basal HBSS 4% BSA pH 7.4; 180 minutes; read-out: Caco2 Papp
Positions of bridges follow the written chain, without caps; N, C: chain ends. Non-standard residues stand in square brackets, D forms with d. Residues, ends and D or L forms follow the SMILES beside them. *: point of attachment. NMeF = CN[C@@H](Cc1ccccc1)C(=O)O; NMeT = CN[C@H](C(=O)O)[C@@H](C)O; NMeL = CN[C@@H](CC(C)C)C(=O)O; NMeV = CN[C@H](C(=O)O)C(C)C; d(β3hA) = C[C@@H](N)CC(=O)O; NMeAbu = CC[C@H](NC)C(=O)O; NMeA = CN[C@@H](C)C(=O)O; Piperidide = C1CCN(*)CC1; NBuGly = CCCCNCC(=O)O; Sar = CNCC(=O)O; tBu = CC(C)(C)*
Below is a list of entries, each paired with its recorded Papp A→B value.
Please state the figure in ×10⁻⁶ cm/s; there is no need to write the unit.

In: Report Papp A→B for CCCCN1CC(=O)N(C)[C@@H](CC)C(=O)N[C@H](C(=O)N2CCCCC2)CC(=O)N(C)[C@@H](C)C(=O)N[C@@H]([C@@H](C)CC)C(=O)N(C)[C@@H](Cc2ccccc2)C(=O)N(C)[C@@H](CC(C)C)C(=O)N[C@@H](C(C)C)C(=O)N(C)CC(=O)N[C@@H](CC(C)C)C(=O)N(C)[C@@H](Cc2ccccc2)C(=O)N(C)[C@@H](C)C(=O)N[C@@H](CC(C)C)C1=O [pd099] ([NMeA]I[NMeF][NMeL]V[Sar]L[NMeF][NMeA]L[NBuGly][NMeAbu]D-Piperidide; lactam N-13)
Out: 0.41

We now examine a further compound.
In: Report Papp A→B for CC[C@H](C)[C@@H]1NC(=O)[C@H](CC(C)C)N(C)C(=O)C[C@@H](C)NC(=O)[C@H](C(C)C)N(C)C(=O)[C@H](COC(C)(C)C)NC(=O)[C@H](CC)N(C)C(=O)[C@H](Cc2ccccc2)N(C)C(=O)[C@H](CC(C)C)NC(=O)[C@@H]2CCCN2C(=O)[C@H]([C@@H](C)O)N(C)C(=O)[C@H](CC(C)C)N(C)C(=O)[C@H](CC)N(C)C(=O)[C@H](C(C)C)NC(=O)[C@H](CC(C)C)N(C)C1=O [pd057] (cyclo(I[NMeL]V[NMeAbu][NMeL][NMeT]PL[NMeF][NMeAbu]S(tBu)[NMeV][d(β3hA)][NMeL]))
Out: 1.16

---

assay: Metabolic stability test: liver microsomal stability assay; format: in vitro ADME, mouse; settings: male, pH 7.4; mouse liver microsomes 0.5 mg protein/mL, compound 1 µM, presence of NADPH; read-out: Mouse Hepatic Microsome CLh,int NADPH(+)
Starred links: 1 amine or outer side, 2 acyl side, 3 side chain; linkers in the order of their positions; H or OH if unused. Positions of bridges follow the written chain, without caps; N, C: chain ends. Non-standard residues stand in square brackets, D forms with d. Residues, ends and D or L forms follow the SMILES beside them. *: point of attachment. NMeF = CN[C@@H](Cc1ccccc1)C(=O)O; NMeI = CC[C@H](C)[C@H](NC)C(=O)O; NMeβAla = CN(CCC(=O)[*:2])[*:1]; NMeL = CN[C@@H](CC(C)C)C(=O)O; NMeV = CN[C@H](C(=O)O)C(C)C; NMeAbu = CC[C@H](NC)C(=O)O; NMeA = CN[C@@H](C)C(=O)O; Piperidide = C1CCN(*)CC1; Sar = CNCC(=O)O
READOUT_LABEL: microsomal CLint at 1 µM (µL/min/mg)
Please state the figure in µL/min/mg; there is no need to write the unit.

In: Report microsomal CLint at 1 µM for CC[C@H](C)[C@H]1C(=O)N[C@@H]([C@@H](C)O)C(=O)N(C)CC(=O)N(C)[C@@H](CC(C)C)C(=O)N(C)[C@@H](Cc2ccccc2)C(=O)N[C@H](C(=O)N2CCCCC2)CC(=O)N(C)[C@@H](C)C(=O)N[C@@H](CC(C)C)C(=O)N(C)[C@@H](Cc2ccccc2)C(=O)N(C)CCC(=O)N(C)[C@@H](CC(C)C)C(=O)N(C)CCC(=O)N[C@@H](CC(C)C)C(=O)N1C [pd120] ([NMeA]L[NMeF][NMeβAla][NMeL][NMeβAla]L[NMeI]T[Sar][NMeL][NMeF]D-Piperidide; lactam N-13)
Out: 25.8

Others:
In: Report microsomal CLint at 1 µM for CC[C@H](C)[C@@H]1NC(=O)[C@H](CC(C)C)N(C)C(=O)C[C@@H](C(=O)N2CCCCC2)NC(=O)[C@H](Cc2ccccc2)N(C)C(=O)[C@H](C(C)C)NC(=O)[C@@H]2CCCN2C(=O)[C@H]([C@@H](C)CC)NC(=O)[C@H](CC)N(C)C(=O)[C@H](C(C)C)N(C)C(=O)[C@H](CC(C)C)NC(=O)[C@H](CC(C)C)N(C)C(=O)[C@H]([C@@H](C)O)NC(=O)[C@H](Cc2ccccc2)NC(=O)CN(C)C1=O [pd029] ([NMeL]I[Sar]FT[NMeL]L[NMeV][NMeAbu]IPV[NMeF]D-Piperidide; lactam N-14)
Out: 38.2
